System: UACC-257 melanoma
test: NCI tumour cell line growth inhibition, 48 h
Would you mind labelling by TGI? At or over 8 µM is t, under is f.

# count of solved cases: 6
> print(dat)
                                   compound  group
1  COc1cc(OC)c(C(=O)/C=C/c2cccc(C#N)c2)c(OC)c1      t
2  CC(=O)CC1=C(OC(C)C)C2(OCCO2)C1O (stereo not given)      t
3  Cc1ccc2c(/C=C/c3ccc(N(C)C)cc3)ccc(C(C)C)cc1-2      t
4  Cc1cnc(CNC(=O)c2c(=O)c3ccc(N4CCCN(C)CC4)nc3n3c2sc2ccccc23)cn1      t
5            O=C1/C(=N\O)S(=O)(=O)c2ccccc21      t
6  Cn1cccc1-c1cc(-c2ccc(Br)cc2)[nH]c(=O)c1C#N      t

In: Has CCC[CH2][Sn]1([CH2]CCC)[O]C2C(CO)OC(n3ccc(N)nc3=O)C2[O]1 (stereo not given) a recorded TGI greater than or equal to 8 µM?
Out: f

In: What do you get for Nc1ncnc2c1c(-c1ccc(Oc3ccccc3)cc1)nn2C[C@@H]1SSC[C@H]1O ?
Out: f

In: Request: O=C(O)c1nc(-c2ccc(Cl)c(Cl)c2)nc2ccc(Cl)cc12
Out: t

In: Try the compound CCN1CN(c2ccccc2)C2(CCN(CC(CC3OCCO3)c3ccc(F)cc3)CC2)C1=O (stereo not given)
Out: t
